All figures here come from patent US10821115B2.

molecular target: recombinant human Mcl-1 (residues 171-327) / Bim interaction (Homo sapiens (Human)); experiment: biochemical; format: binding; settings: TR-FRET, Mcl-1(171-327) / biotin-Bim (51-76); read-out: Mcl-1 HTRF IC50
Decision: IC50 beneath 0.4 nM gives Criterion met; IC50 meeting or exceeding 0.4 nM gives Criterion not met.

Previously resolved entries follow.
C[C@@H]1[C@@H](C)CCCC(CO)(CO)[C@@H]2CC[C@H]2CN2C[C@@]3(CCCc4cc(Cl)ccc43)COc3ccc(cc32)C(=O)NS1(=O)=O | Criterion not met
C[C@@H]1[C@@H](C)C/C=C/[C@@](O)(C(F)(F)F)[C@@H]2CC[C@H]2CN2C[C@@]3(CCCc4cc(Cl)ccc43)COc3ccc(cc32)C(=O)NS1(=O)=O | Criterion met

Quick check: IC50 of C[C@@H]1[C@@H](C)CCC[C@]2(CC(N(C)C)=NO2)[C@@H]2CC[C@H]2CN2C[C@@]3(CCCc4cc(Cl)ccc43)COc3ccc(cc32)C(=O)NS1(=O)=O under 0.4 nM? Criterion met

Quick check: IC50 of CO[C@@]1(CC(=O)N(C)C)CCC[C@H](C)[C@@H](C)S(=O)(=O)NC(=O)c2ccc3c(c2)N(C[C@@H]2CC[C@H]21)C[C@@]1(CCCc2cc(Cl)ccc21)CO3 under 0.4 nM? Criterion not met

----------
target: recombinant human Mcl-1 (residues 171-327) / Bim interaction (Homo sapiens (Human)); test: biochemical; format: binding; conditions: TR-FRET, Mcl-1(171-327) / biotin-Bim (51-76); read-out: Mcl-1 HTRF IC50
Endpoint: pIC50
Answers are plain numbers, as −log10 of the molar value.

C[C@@H]1[C@@H](C)C/C=C/[C@@](O)(CC=O)[C@@H]2CC[C@H]2CN2C[C@@]3(CCCc4cc(Cl)ccc43)COc3ccc(cc32)C(=O)NS1(=O)=O | 9.24
CC[C@@H]1CCCC[C@@](O)(COC)[C@@H]2CC[C@H]2CN2C[C@@]3(CCCc4cc(Cl)ccc43)COc3ccc(cc32)C(=O)NS1(=O)=O | 9.25

Let us examine a further case.
Tell us which pIC50 value is on record for CC[C@@H]1CC/C=C/[C@](C=O)(OC)[C@@H]2CC[C@H]2CN2C[C@@]3(CCCc4cc(Cl)ccc43)COc3ccc(cc32)C(=O)NS1(=O)=O (single isomer, unassigned) 9.06

----------
Provide the reported IC50 of each item.
molecular target: recombinant human Mcl-1 (residues 171-327) / Bim interaction (Homo sapiens (Human), UniProt Q07820); test: biochemical; format: binding; conditions: 0.1 nM Mcl-1(171-327), 0.05 nM biotin-Bim (51-76); read-out: Mcl-1 HTRF IC50
Sequence (Q07820 171-327): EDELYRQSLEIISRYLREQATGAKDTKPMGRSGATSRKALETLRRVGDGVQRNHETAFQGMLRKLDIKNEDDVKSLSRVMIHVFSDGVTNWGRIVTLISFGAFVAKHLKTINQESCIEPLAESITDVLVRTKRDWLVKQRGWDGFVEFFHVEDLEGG
Answers are plain numbers, in nM.

Below are some compounds; for each one, tell me its IC50.
1. COC[C@@H]1[C@@H](C)C/C=C/[C@@](CN2CCN3CCOC[C@@H]3C2)(OC)[C@@H]2CC[C@H]2CN2C[C@@]3(CCCc4cc(Cl)ccc43)COc3ccc(cc32)C(=O)NS1(=O)=O
2. CCO[C@]1(CN2CCN(CCOC)CC2)/C=C/C[C@H](C)[C@@H](C)S(=O)(=O)NC(=O)c2ccc3c(c2)N(C[C@@H]2CC[C@H]21)C[C@@]1(CCCc2cc(Cl)ccc21)CO3
3. CO[C@@]1(CN2CCN(CC3COC3)CC2)/C=C/C[C@H](C)[C@@H](C)S(=O)(=O)NC(=O)c2ccc3c(c2)N(C[C@@H]2CC[C@H]21)C[C@@]1(CCCc2cc(Cl)ccc21)CO3
4. CCO[C@]1(CN2CCN3CCS(=O)(=O)C[C@@H]3C2)/C=C/C[C@H](C)[C@@H](C)S(=O)(=O)NC(=O)c2ccc3c(c2)N(C[C@@H]2CC[C@H]21)C[C@@]1(CCCc2cc(Cl)ccc21)CO3 [Example 122]
5. CO[C@@]1(CN2CCN3CCN(C(=O)CCS(=O)(=O)c4ccccc4)C[C@H]3C2)/C=C/C[C@H](C)[C@@H](C)S(=O)(=O)NC(=O)c2ccc3c(c2)N(C[C@@H]2CC[C@H]21)C[C@@]1(CCCc2cc(Cl)ccc21)CO3 (single isomer, unassigned)

1: 0.068; 2: 0.205; 3: 0.225; 4: 0.087; 5: 0.321

Below are some compounds; for each one, tell me its IC50.
1. CC(C)CO[C@]1(CN2CCN3CCCC[C@@H]3C2)/C=C/C[C@H](C)[C@@H](C)S(=O)(=O)NC(=O)c2ccc3c(c2)N(C[C@@H]2CC[C@H]21)C[C@@]1(CCCc2cc(Cl)ccc21)CO3
2. COCC[C@@H]1[C@@H](C)C/C=C/[C@](CN2CCN3CCCC[C@@H]3C2)(OC)[C@@H]2CC[C@H]2CN2C[C@@]3(CCCc4cc(Cl)ccc43)COc3ccc(nc32)C(=O)NS1(=O)=O
3. CO[C@]1(CN2CCN(CCS(C)(=O)=O)CC2)/C=C/C[C@H](C)[C@@H](C)S(=O)(=O)NC(=O)c2ccc3c(c2)N(C[C@@H]2CC[C@H]21)C[C@@]1(CCCc2cc(Cl)ccc21)CO3
4. C[C@@H]1[C@@H](C)CCC[C@@](O)(CN=[N+]=[N-])[C@@H]2CC[C@H]2CN2C[C@@]3(CCCc4cc(Cl)ccc43)COc3ccc(cc32)C(=O)NS1(=O)=O (single isomer, unassigned)
5. CO[C@]1(CN2CCN(C)CC2)/C=C/[C@H](C)[C@H](C)CS(=O)(=O)NC(=O)c2ccc3c(c2)N(C[C@@H]2CC[C@H]21)C[C@@]1(CCCc2cc(Cl)ccc21)CO3
6. COCC[C@@H]1[C@@H](C)C/C=C/[C@](CN2CCN(Cc3noc(C)n3)CC2)(OC)[C@@H]2CC[C@H]2CN2C[C@@]3(CCCc4cc(Cl)ccc43)COc3ccc(nc32)C(=O)NS1(=O)=O

1: 0.214; 2: 0.156; 3: 0.609; 4: 3.8; 5: 0.221; 6: 0.079
